# tested system: full-length SHP2 (His6-tagged SHP2(2-527)) (Homo sapiens, UniProt Q06124)
# Construct: His6-tagged SHP2(2-527); His6; made in house; host or cells: E. coli
# Sequence (Q06124 2-527): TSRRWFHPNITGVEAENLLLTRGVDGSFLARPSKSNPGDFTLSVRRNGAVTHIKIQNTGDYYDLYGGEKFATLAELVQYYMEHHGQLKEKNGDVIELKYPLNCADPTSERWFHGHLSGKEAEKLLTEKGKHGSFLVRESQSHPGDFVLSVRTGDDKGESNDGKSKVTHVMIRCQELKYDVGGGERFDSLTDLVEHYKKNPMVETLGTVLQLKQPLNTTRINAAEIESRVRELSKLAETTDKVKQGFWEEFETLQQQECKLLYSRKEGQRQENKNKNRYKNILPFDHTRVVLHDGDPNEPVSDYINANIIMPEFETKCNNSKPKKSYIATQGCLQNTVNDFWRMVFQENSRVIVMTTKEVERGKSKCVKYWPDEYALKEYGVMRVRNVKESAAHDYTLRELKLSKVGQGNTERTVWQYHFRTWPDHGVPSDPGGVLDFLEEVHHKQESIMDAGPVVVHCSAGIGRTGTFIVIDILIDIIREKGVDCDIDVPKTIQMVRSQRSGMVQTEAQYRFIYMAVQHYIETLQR
# experiment description: SHP2 Enzymatic Assay (fluorescence intensity kinetic assay, DiFMUP hydrolysis)
# Format: biochemical
Exam item: assign Criterion met to entries whose IC50 is below 50 nM and Criterion not met to entries at or above 50 nM. Note that a value of exactly 50 nM receives Criterion not met.

Check out these entries, answers already filled in.
Nc1nccc(Sc2ccc3nc(N4CCC5(CC4)Oc4ccccc4[C@H]5N)cnc3n2)c1Cl : Criterion met
C[C@@H]1OCC2(CCN(c3cnc4nc(Sc5ccnc6[nH]ncc56)ccc4n3)CC2)[C@@H]1N : Criterion not met
Nc1nccc(Sc2ccc3nc(N4CCCC45CC(N)C5)cnc3n2)c1Cl (centres unmarked) : Criterion not met
COc1ccc2c(c1)[C@@H](N)C1(CCN(c3cnc4nc(Sc5ccnc(N)c5Cl)ccc4n3)CC1)C2 : Criterion not met
Nc1nccc(Sc2ccc3nc(N4CCC(N)(Cc5ccccc5)CC4)cnc3n2)c1Cl : Criterion not met
N[C@@H]1c2cccnc2CC12CCN(c1cnc3nc(Sc4ccnc(N5CC[C@H](CO)C5)c4Cl)ccc3n1)CC2 : Criterion not met
NCC1CC2CCC(C1)N2c1cnc2nc(Sc3ccnc(N)c3Cl)ccc2n1 (centres unmarked) : Criterion met
CC1(N)CCN(c2cnc3nc(-c4cccc(Cl)c4)ccc3n2)CC1 : Criterion not met
Nc1nccc(Sc2ccc3nc(N4C5CCC4CNC5)cnc3n2)c1Cl : Criterion met
CC1(N)CCN(c2cnc3nc(-c4cccc(F)c4Cl)ccc3n2)CC1 : Criterion met

IC50 under 50 nM? Item: Cc1ccc2c(n1)CC1(CCN(c3cnc4nc(Sc5ccnc(N)c5Cl)ccc4n3)CC1)[C@H]2N
Criterion not met

Given CN[C@H]1CCCN(c2cnc3nc(Sc4ccnc(N)c4Cl)ccc3n2)CC1 , is recorded IC50 strictly lower than 50 nM?
Criterion not met

Would you kindly verify if IC50 of NCC1(CO)CCN(c2cnc3nc(Sc4ccnc(N)c4Cl)ccc3n2)CC1 is strictly less than 50 nM?
Criterion not met

Answer whether the compound Cc1nccc(Sc2ccc3nc(N4CCC5(CC4)Cc4cc(O)ccc4[C@H]5N)cnc3n2)c1Cl has IC50 strictly less than 50 nM
Criterion met

Strictly below 50 nM in IC50? Cc1c[nH]c2nccc(Sc3ccc4nc(N5CCC6(CC5)CO[C@@H](C)[C@H]6N)cnc4n3)c12
Criterion not met

Is IC50 strictly under 50 nM for the entry CC1(N)CCN(c2cnc3nc(-c4cccc5ccncc45)ccc3n2)CC1 ?
Criterion not met

Field: below-cutoff. Rule: recorded IC50 strictly less than 50 nM. Subject: CC1(N)CCN(c2cnc3nc(Sc4ccnc5ncccc45)ccc3n2)CC1
Criterion not met

====

# tested system: full-length SHP2 (His6-tagged SHP2(2-527)) (Homo sapiens)
# Construct: His6-tagged SHP2(2-527); His6; made in house; host or cells: E. coli
# experiment description: SHP2 Enzymatic Assay (fluorescence intensity kinetic assay, DiFMUP hydrolysis)
# Format: biochemical
outcome measure: pIC50
The scale used: pIC50 is minus the common logarithm of the concentration in molar units.

Nc1nccc(Sc2ccc3nc(N4C[C@H]5C[C@H](N)[C@@H](C4)O5)cnc3n2)c1Cl : 6.82
C[C@H]1CC[C@H](N)CN1c1cnc2nc(Sc3ccnc(N)c3Cl)ccc2n1 : 5.51
COc1ccc(-c2ccc3nc(N4CCC(C)(N)CC4)cnc3n2)c(Cl)c1Cl : 6.38

Fill in: full-length SHP2 (His6-tagged SHP2(2-527)) (Homo sapiens) pIC50 for COCC1(N)CCN(c2cnc3nc(Sc4ccnc(N)c4Cl)ccc3n2)CC1 = 6.91

Observed pIC50 on full-length SHP2 (His6-tagged SHP2(2-527)) (Homo sapiens), entry N[C@@H]1CCCC12CCN(c1cnc3nc(Sc4cccc(Cl)c4Cl)ccc3n1)CC2 , equals 7.23

Case Nc1nccc(Sc2ccc3nc(N4CC[C@@H](N)[C@@H](O)C4)cnc3n2)c1Cl , full-length SHP2 (His6-tagged SHP2(2-527)) (Homo sapiens), pIC50 recorded as 6.99

Summary: Cc1nc(Cl)ccc1Sc1ccc2nc(N3CCC(C)(N)CC3)cnc2n1 , full-length SHP2 (His6-tagged SHP2(2-527)) (Homo sapiens), pIC50 = 6.30

Bench note, full-length SHP2 (His6-tagged SHP2(2-527)) (Homo sapiens): C[C@@H]1OCC2(CCN(c3cnc4nc(Sc5ccnc(N6CCOCC6)c5Cl)ccc4n3)CC2)[C@@H]1N , pIC50 reads 6.37

====

# tested system: full-length SHP2 (His6-tagged SHP2(2-527)) (Homo sapiens, UniProt Q06124)
# Construct: His6-tagged SHP2(2-527); His6; made in house; host or cells: E. coli
# experiment description: SHP2 Enzymatic Assay (fluorescence intensity kinetic assay, DiFMUP hydrolysis)
# Type: biochemical
outcome measure: pIC50
The read-out pIC50 is expressed as -log10 of concentration in moles per litre.

Nc1nccc(Sc2ccc3nc(N4CCC(N)(C(F)(F)F)CC4)cnc3n2)c1Cl : 5.48

For this compound ( C[C@@H]1OCC2(CCN(c3cnc4nc(Sc5ccnc(NCCO)c5Cl)ccc4n3)CC2)[C@@H]1N ), measured pIC50 is 6.39

Per the records, this compound ( N[C@@H]1c2ccccc2CC12CCN(c1cnc3nc(Oc4ccc(F)cc4)ccc3n1)CC2 ) has pIC50 equal to 7.68

The recorded pIC50 for COc1cccc(-c2ccc3nc(N4CCC(C)(N)CC4)cnc3n2)c1Cl is 5.96

The compound identified as Nc1nccc(Sc2ccc3nc(N4CC5CC(C4)N5)cnc3n2)c1Cl registered its pIC50 at 7.32

Form field pIC50, entry CC(=O)N1CCN(c2nccc(Sc3ccc4nc(N5CCC6(CC5)CO[C@@H](C)[C@H]6N)cnc4n3)c2Cl)CC1 : 6.13

Briefly, pIC50 measured for C[C@@H]1OCC2(CCN(c3cnc4nc(Sc5cccnc5C(F)(F)F)ccc4n3)CC2)[C@@H]1N : 6.74

Record C[C@@H]1OCC2(CCN(c3cnc4nc(Sc5ccnc(NC6CC6)c5Cl)ccc4n3)CC2)[C@@H]1N , field pIC50: 6.38

Reported pIC50 ( COc1ccc2c(n1)CC1(CCN(c3cnc4nc(Sc5ccnc(N)c5Cl)ccc4n3)CC1)[C@H]2N (single isomer, unassigned) ) = 7.44

Recorded result, NCC1(F)CCN(c2cnc3nc(Sc4cccc(Cl)c4Cl)ccc3n2)CC1 , pIC50: 6.71

So for CNC1C[C@@H]2CC[C@@H](C1)N2c1cnc2nc(Sc3ccnc(N)c3Cl)ccc2n1 (stereo partly shown) , the logged pIC50 turned out to be 7.31

pIC50 for Nc1nccc(Sc2ccc3nc(N4CC5CCC(N)C5C4)cnc3n2)c1Cl (stereo not shown) is 6.92

Measured pIC50 of Nc1nccc(Sc2ccc3nc(N4CCC(O)(CO)CC4)cnc3n2)c1Cl : 5.40

Per the records, this compound ( Cc1c(Sc2ccc3nc(N4CCC5(CC4)CO[C@@H](C)[C@H]5N)cnc3n2)ccnc1N ) has pIC50 equal to 6.83

Item: COCCCNc1nccc(Sc2ccc3nc(N4CCC(C)(N)CC4)cnc3n2)c1Cl | pIC50: 6.30

// sample Nc1nccc(Sc2ccc3nc(N4C[C@H]5CC[C@@H](C4)[C@@H]5N)cnc3n2)c1Cl , its pIC50 was 6.46

====

# tested system: full-length SHP2 (His6-tagged SHP2(2-527)) (Homo sapiens)
# Construct: His6-tagged SHP2(2-527); His6; made in house; host or cells: E. coli
# experiment description: SHP2 Enzymatic Assay (fluorescence intensity kinetic assay, DiFMUP hydrolysis)
# Type: biochemical
Just a reminder that ties go to No: only IC50 strictly below 80 nM counts as Yes.

Regarding C[C@@H]1OCC2(CCN(c3cnc4nc(Sc5ccncc5Cl)ccc4n3)CC2)[C@@H]1N [Example 187] , kindly confirm whether its IC50 is beneath 80 nM.
No

Answer whether the molecule COc1nccc(Sc2ccc3nc(N4CCC(N)(CO)CC4)cnc3n2)c1Cl [Example 44] has IC50 strictly less than 80 nM
No

====

# Tested on: ERK1/2 (Thr202/Tyr204) phosphorylation in KYSE520 cells
# experiment description: Cellular Phospho-p44/42 MAPK (Erk 1/2) (Thr202/Tyr204) Assay (In-Cell Western)
# Format: cell-based
# recorded conditions: Homo sapiens, KYSE-520, 1 h, read-out: Biological Example 2 IC50 (nM)
Entries and their IC50
Form entry: value (nM) — number only.

N[C@@H]1c2cccnc2CC12CCN(c1cnc3nc(Sc4ccnc(NCCO)c4Cl)ccc3n1)CC2 : 11
Nc1nccc(Sc2ccc3nc(N4CCC5(CC4)Cc4ccccc4[C@H]5N)cnc3n2)c1Cl : 8
CN[C@H]1CCCN(c2cnc3nc(Sc4ccnc(N)c4Cl)ccc3n2)CC1 : 317
Nc1nccc(Sc2ccc3nc(N4CCC[C@@H](N)CC4)cnc3n2)c1Cl : 110
C[C@@H]1OCC2(CCN(c3cnc4nc(Sc5ccnc(N)c5Cl)ccc4n3)CC2)[C@@H]1N : 79
CC1(N)CCN(c2cnc3nc(Sc4ccnc(N)c4Cl)ccc3n2)CC1 : 59

The molecule identified as CNc1nccc(Sc2ccc3nc(N4CCC5(CC4)CO[C@@H](C)[C@H]5N)cnc3n2)c1Cl registered its IC50 at 80
